Entry source: the supplement of paper PMC4862054

The entries below are paired with their reported normalised response.
# Test system: MDA-MB-468
# protocol: normalised response (% of control), CellTiter-Glo; higher = more viable cells (100 = DMSO, 0 = benzethonium chloride kill control)
# condition parameters: incubation time: 72 h
Provide only the numeric value, understood in %.

The examples below pair each entry with its known result.
{"compound": "O=C(O)CCCc1ccc(N(CCCl)CCCl)cc1 [Chlorambucil] (100 nM)", "normalised response, %": 106}
{"compound": "NS(=O)(=O)OC[C@@H]1C[C@@H](n2ccc3c(N[C@H]4CCc5ccccc54)ncnc32)C[C@@H]1O [Pevonedistat] (100 nM)", "normalised response, %": 56.2}
{"compound": "Nc1nc(OCc2cc(Br)cs2)c2[nH]cnc2n1 [Lomeguatrib] (100 nM)", "normalised response, %": 95.4}

The record that follows has no normalised response shown yet.
Value of measured normalised response for the entry CC(C)c1c(C(=O)Nc2ccccc2)c(-c2ccccc2)c(-c2ccc(F)cc2)n1CC[C@@H](O)C[C@@H](O)CC(=O)O [Atorvastatin] (100 nM) : 93.8

====

# Tested on: CAL-120
# protocol: normalised viability (% of control), CellTiter-Blue; higher = more viable cells (about 100 = DMSO control)
# condition parameters: 10 nM; incubation time: 72 h
The entries below are paired with their reported normalised viability.
Provide only the numeric value, understood in %.

The examples below pair each entry with its known result.
{"molecule": "C/C(=C\\c1csc(C)n1)[C@@H]1C[C@@H]2O[C@]2(C)CCC[C@H](C)[C@H](O)[C@@H](C)C(=O)C(C)(C)[C@@H](O)CC(=O)O1 [Patupilone]", "measured parameter": "normalised viability", "reported result": 51.6}
{"molecule": "O=C1NC(=O)[C@@H](c2cn3c4c(cccc24)CCC3)[C@@H]1c1c[nH]c2ccccc12 [Tivantinib]", "measured parameter": "normalised viability", "reported result": 90.8}
{"molecule": "CC[C@]1(O)C[C@H]2CN(CCc3c([nH]c4ccccc34)[C@@](C(=O)OC)(c3cc4c(cc3OC)N(C=O)[C@H]3[C@@](O)(C(=O)OC)[C@H](OC(C)=O)[C@]5(CC)C=CCN6CC[C@]43[C@@H]65)C2)C1 [Vincristine]", "measured parameter": "normalised viability", "reported result": 22.9}

Value of measured normalised viability for the entry Cn1c(=O)n(-c2ccc(C(C)(C)C#N)cc2)c2c3cc(-c4cnc5ccccc5c4)ccc3ncc21 [NVP-BEZ235] : 57.4

====

# Tested on: MDA-MB-436
# protocol: normalised response (% of control), CellTiter-Glo; higher = more viable cells (100 = DMSO, 0 = benzethonium chloride kill control)
# condition parameters: incubation time: 72 h
The entries below are paired with their reported normalised response.
Provide only the numeric value, understood in %.

{"molecule": "Cc1ccc(NC(=O)c2ccc(CN3CCN(C)CC3)cc2)cc1Nc1nccc(-c2cccnc2)n1 [Imatinib] (1 nM)", "normalised response (%)": 89.9}
{"molecule": "CN1CCN(CCOc2cc(OC3CCOCC3)c3c(Nc4c(Cl)ccc5c4OCO5)ncnc3c2)CC1 [Saracatinib] (1000 nM)", "normalised response (%)": 93.9}

Value of measured normalised response for the entry CO[C@H]1C[C@@H]2CC[C@@H](C)[C@@](O)(O2)C(=O)C(=O)N2CCCC[C@H]2C(=O)O[C@H]([C@H](C)C[C@@H]2CC[C@@H](OCCO)[C@H](OC)C2)CC(=O)[C@H](C)/C=C(\C)[C@@H](O)[C@@H](OC)C(=O)[C@H](C)C[C@H](C)/C=C/C=C/C=C/1C [Everolimus] (10 nM) : 77.8

Value of measured normalised response for the entry CCCCCCCCc1ccc(CCC(N)(CO)CO)cc1 [Fingolimod] (1 nM) : 92.8

Value of measured normalised response for the entry CC(C)c1c(C(=O)Nc2ccccc2)c(-c2ccccc2)c(-c2ccc(F)cc2)n1CC[C@@H](O)C[C@@H](O)CC(=O)O [Atorvastatin] (1 nM) : 95.5

Value of measured normalised response for the entry CNNCc1ccc(C(=O)NC(C)C)cc1 [Procarbazine] (1 nM) : 101

Value of measured normalised response for the entry O=C(O)CCCc1ccc(N(CCCl)CCCl)cc1 [Chlorambucil] (1 nM) : 132

Value of measured normalised response for the entry c1ccc([C@H]2CN3CCSC3=N2)cc1 [Levamisole] (10 nM) : 106

Value of measured normalised response for the entry Cn1c(=O)n(-c2ccc(C(C)(C)C#N)cc2)c2c3cc(-c4cnc5ccccc5c4)ccc3ncc21 [Dactolisib] (0.1 nM) : 99.6

Value of measured normalised response for the entry CO[C@H]1C[C@@H]2CC[C@@H](C)[C@@](O)(O2)C(=O)C(=O)N2CCCC[C@H]2C(=O)O[C@H]([C@H](C)C[C@@H]2CC[C@@H](OCCO)[C@H](OC)C2)CC(=O)[C@H](C)/C=C(\C)[C@@H](O)[C@@H](OC)C(=O)[C@H](C)C[C@H](C)/C=C/C=C/C=C/1C [Everolimus] (0.01 nM) : 95.7

====

The entries below are paired with their reported normalised response.
# System: HCC1937
# protocol: normalised response (% of control), CellTiter-Glo; higher = more viable cells (100 = DMSO, 0 = benzethonium chloride kill control)
# condition parameters: incubation time: 72 h
Be sure to follow the number with its unit.

{"compound": "CNNCc1ccc(C(=O)NC(C)C)cc1 [Procarbazine] (1000 nM)", "reported result": "105%"}
{"compound": "O=C(O)CCCc1ccc(N(CCCl)CCCl)cc1 [Chlorambucil] (10 nM)", "reported result": "98.8%"}
{"compound": "CN1CCN(CCOc2cc(OC3CCOCC3)c3c(Nc4c(Cl)ccc5c4OCO5)ncnc3c2)CC1 [Saracatinib] (1000 nM)", "reported result": "83.3%"}

The record that follows has no normalised response shown yet.
Observed normalised response on HCC1937, entry O=C(O)CCCc1ccc(N(CCCl)CCCl)cc1 [Chlorambucil] (1 nM) , equals 102%

====

# Test system: MDA-MB-453
# protocol: normalised response (% of control), CellTiter-Glo; higher = more viable cells (100 = DMSO, 0 = benzethonium chloride kill control)
# condition parameters: incubation time: 72 h
The entries below are paired with their reported normalised response.
Provide only the numeric value, understood in %.

The examples below pair each entry with its known result.
{"molecule": "Cn1cncc1[C@@](N)(c1ccc(Cl)cc1)c1ccc2c(c1)c(-c1cccc(Cl)c1)cc(=O)n2C [Tipifarnib] (10000 nM)", "measured target": "MDA-MB-453", "unit abbreviation": "%", "normalised response": 63.7}
{"molecule": "CCCCCCCCc1ccc(CCC(N)(CO)CO)cc1 [Fingolimod] (10000 nM)", "measured target": "MDA-MB-453", "unit abbreviation": "%", "normalised response": 0.66}
{"molecule": "COc1ccccc1S(=O)(=O)Nc1ccc2c(c1)CN(C)C(=O)N2 [PFI-1] (10000 nM)", "measured target": "MDA-MB-453", "unit abbreviation": "%", "normalised response": 42.8}
{"molecule": "CN(C)C[C@@H]1CCn2cc(c3ccccc32)C2=C(C(=O)NC2=O)c2cn(c3ccccc23)CCO1 [Ruboxistaurin] (10000 nM)", "measured target": "MDA-MB-453", "unit abbreviation": "%", "normalised response": 0.01}
{"molecule": "C[C@]12CC[C@H](O)CC1=CC[C@@H]1[C@@H]2CC[C@]2(C)C(c3cccnc3)=CC[C@@H]12 [Abiraterone] (5000 nM)", "measured target": "MDA-MB-453", "unit abbreviation": "%", "normalised response": 112}
{"molecule": "CN1CCN(CCOc2cc(OC3CCOCC3)c3c(Nc4c(Cl)ccc5c4OCO5)ncnc3c2)CC1 [Saracatinib] (10000 nM)", "measured target": "MDA-MB-453", "unit abbreviation": "%", "normalised response": 63.1}

The record that follows has no normalised response shown yet.
Value of measured normalised response for the entry Cn1c(=O)n(-c2ccc(C(C)(C)C#N)cc2)c2c3cc(-c4cnc5ccccc5c4)ccc3ncc21 [Dactolisib] (1000 nM) : 37.9

====

The entries below are paired with their reported EC50, CellTox Green.
# Tested on: CAL-51
# condition parameters: 72 h
Provide only the numeric value, understood in nM.

{"compound": "CN1CCN(CCOc2cc(OC3CCOCC3)c3c(Nc4c(Cl)ccc5c4OCO5)ncnc3c2)CC1", "unit abbreviation": "nM", "reported result": 371}

Observed EC50, CellTox Green on CAL-51, entry CN(C)CCN1C(=O)c2cccc3cc(N)cc(c23)C1=O [Amonafide] , equals 6260

Observed EC50, CellTox Green on CAL-51, entry Cn1cncc1[C@@](N)(c1ccc(Cl)cc1)c1ccc2c(c1)c(-c1cccc(Cl)c1)cc(=O)n2C , equals 19.9

Observed EC50, CellTox Green on CAL-51, entry C/C(=C\c1csc(C)n1)[C@@H]1C[C@@H]2O[C@]2(C)CCC[C@H](C)[C@H](O)[C@@H](C)C(=O)C(C)(C)[C@@H](O)CC(=O)O1 , equals 2.63

Observed EC50, CellTox Green on CAL-51, entry CN(C)C[C@@H]1CCn2cc(c3ccccc32)C2=C(C(=O)NC2=O)c2cn(c3ccccc23)CCO1 , equals 1580

Observed EC50, CellTox Green on CAL-51, entry COc1ccc(-c2ccc3c(N4CCOC[C@@H]4C)nc(N4CCOC[C@@H]4C)nc3n2)cc1CO , equals 5.2
